Data provenance: ChEMBL document CHEMBL1130393

- testTarget: Tubulin (Bos taurus, UniProt Q6B856+Q862L2+Q862F3)
- procedureText: Inhibition of tubulin polymerization
- Assay type: functional
Each entry falls into one class according to its IC50; the ranges are low bin = under 0.8 µM, mid bin = from 0.8 µM up to 2 µM, high bin = 2 µM and over

Form field 'band' for Cc1ccc2c(O)cc(-c3cccc4ccccc34)nc2n1
low bin

Form field 'band' for Cc1cccc(-c2cc(O)c3c(C)cc(C)nc3n2)c1
high bin

Form field 'band' for Oc1cc(-c2cccc(Cl)c2)nc2ncccc12
mid bin

Form field 'band' for Cc1ccnc2nc(-c3cccc(Cl)c3)cc(O)c12
mid bin

Form field 'band' for Cc1cc(C)c2c(O)cc(-c3cccc(F)c3)nc2n1
low bin

Form field 'band' for Oc1cc(-c2cccc3ccccc23)nc2ncccc12
mid bin

Form field 'band' for Cc1cnc2nc(-c3ccc4ccccc4c3)cc(O)c2c1
high bin

Form field 'band' for Cc1ccc2c(=O)cc(-c3cccc(F)c3)[nH]c2n1
low bin

Form field 'band' for Cc1cc(C)c2c(O)cc(-c3cccc(Cl)c3)nc2n1
low bin

Form field 'band' for Cc1cccc(-c2cc(O)c3cc(C)cnc3n2)c1
mid bin

Form field 'band' for Oc1cc(-c2ccc3ccccc3c2)nc2ncccc12
high bin

Form field 'band' for Cc1cccc(-c2cc(O)c3ccc(C)nc3n2)c1
mid bin
